Molecular target: T1, Human Galectin-3 protein (Acro Biosystems, GA3-H5129) (human, UniProt P17931 2-250)
T1 construct: Bought protein; also called Gal3-ECD-His; Gal3-His; not shown: linker-spaced 6-histidine tag
T1 sequence (P17931 2-250): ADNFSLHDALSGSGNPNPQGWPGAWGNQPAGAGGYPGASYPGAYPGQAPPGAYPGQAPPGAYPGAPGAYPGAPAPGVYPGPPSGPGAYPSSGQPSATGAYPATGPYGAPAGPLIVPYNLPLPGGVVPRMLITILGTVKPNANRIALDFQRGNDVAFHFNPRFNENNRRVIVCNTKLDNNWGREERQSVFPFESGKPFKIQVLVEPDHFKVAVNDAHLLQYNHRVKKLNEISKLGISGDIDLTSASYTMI
Assay: SPR (Biacore T200), antibody captured, Galectin-3 as analyte
parameter measured: pKd
Give only the number. pKd is defined as minus log10 of concentration in molar units.

Q: Can you look up the measured pKd of 12G5.D7 (antibody, V domains shown) VH: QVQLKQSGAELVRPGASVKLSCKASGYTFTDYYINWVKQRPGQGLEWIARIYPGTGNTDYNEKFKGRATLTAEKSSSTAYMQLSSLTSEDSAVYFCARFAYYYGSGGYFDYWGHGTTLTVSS VL: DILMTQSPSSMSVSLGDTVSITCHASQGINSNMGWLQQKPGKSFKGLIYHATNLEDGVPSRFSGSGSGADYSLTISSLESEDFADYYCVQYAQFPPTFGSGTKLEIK for me?
Ans: 8.72

Q: Requested field: pKd. Item: 15F10.2D6 (antibody, V domains shown) VH: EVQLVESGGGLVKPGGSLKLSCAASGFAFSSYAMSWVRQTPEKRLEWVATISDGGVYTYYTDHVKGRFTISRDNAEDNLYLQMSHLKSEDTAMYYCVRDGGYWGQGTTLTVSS VL: DVLMTQTPLSLPVSLGDQASISCRSSQSIVHNNGNTYLEWYLQKPGQSPKLLIYKVSNRFSGVPDRFSGSGSGTDFTLKISRVEAEDLGVYYCFQGSHVPLTFGGGTKLELK
Ans: 8.69
